Origin of values: PubChem BioAssay (NCI)

- Test system: SN12C renal
- experiment_notes: NCI-60 one-dose screen, 48 h (100 = growth as untreated, 0 = no growth, -100 = all killed)
- study_conditions: 10 µM unless noted
- Method: Growth inhibition of the SN12C human tumor cell line is measured as a screen for anti-cancer activity. Cells are grown in 96 well plates and exposed to the test compound for 48 hours. Compounds are tested at a single concentration, which is 10^-5 M for most compounds. The reported endpoint is percent growth (GI% or GIPRCNT), where numbers from 0 - 100% represent growth inhibition, and numbers from -100% - 0 represent cell death. For example, a value of 40 represents 60% growth inhibition. […]
About 83,000 compounds went through this panel and 20% of them were active in at least one assay; those are over-represented in the sample as a whole.
experimental_endpoint: growth (%)
Numbers only, in %.

Example results:
CN(C)CCN1C(=O)c2cccc3c(-c4ccc(-c5nc6c7ccccc7c7ccccc7c6[nH]5)cc4)ccc(c23)C1=O: 97.4
C[C@@H](C[C@H](CCOCc1cccnc1)c1ccccc1)c1cc2ccccc2o1: 95.1
CCN(CC)CCOc1ccc(/C(=C(\C)c2ccc(OC)c(F)c2)c2ccc(Cl)cc2)cc1: 83.5
Cc1cc(N(CCCNc2ccnc3cc(Cl)ccc23)Cc2ccccn2)nc(N2CCCC2)n1: 64.4
C=C1C(=O)O[C@H]2[C@H]1CC/C(C(=O)NCCCCCCCCNC(=O)/C1=C/CC[C@@]3(C)O[C@H]3[C@H]3OC(=O)C(=C)[C@@H]3CC1)=C\CC[C@@]1(C)O[C@@H]21: 76.2
Cc1nc(Nc2ccccn2)sc1C(=O)/C=C/c1ccc(Br)cc1: 78.8
O=C1Nc2ccccc2/C1=N/N=C/c1ccc(OC2OC(CO)C(O)C(O)C2O)cc1 (stereo not drawn): 101
Cn1ncc2c(Nc3ccc(Br)cc3)nc(Nc3ccc(Br)cc3)nc21: 47.1

Could I get growth for every one of these entries?
1. CC(=[N-])N1CCC[C@@H](Nc2c3ccccc3nc3ccccc23)C1.[Cl][Pt].[NH-]CCC[NH-]
2. CCN1CCN(c2ccc(Nc3cc(-c4cccnc4Nc4c(Cl)c(OC)cc(OC)c4Cl)ncn3)cc2)CC1
3. O=S(=O)(Nc1ccsc1-c1nc(-c2ccccc2)no1)c1cc(Cl)cc(Cl)c1
4. O=C(NCCN1CCC(O)CC1)c1cc2c(o1)C(=O)c1ccccc1C2=O

1. 5.71
2. 56.6
3. 91.3
4. -88.1

----------
- System: CCRF-CEM leukemia
- experiment_notes: NCI-60 one-dose screen, 48 h
- study_conditions: 10 µM unless noted
About 83,000 compounds went through this panel and 20% of them were active in at least one assay; those are over-represented in the sample as a whole. Activity calls are given as the source filed them. The calls were made as follows: active = growth percent below 10; inactive = the rest.
Select the correct class. Options are true (1) for active, false (0) for inactive and nothing else.

COc1ccc(-c2nc3ccccn3c2/C=C/C(=O)c2cc(OC)c(OC)c(OC)c2)cc1: false (0)

Would you kindly look at the next entry?
Test call for this compound, please: O=[N+]([O-])c1ccc(-c2cc3c(Nc4ccc(OCc5cccc(Cl)c5)c(Cl)c4)ncnc3s2)cc1
false (0)

----------
- Test system: MOLT-4 leukemia
- experiment_notes: NCI-60 one-dose screen, 48 h
- study_conditions: 10 µM unless noted
About 83,000 compounds went through this panel and 20% of them were active in at least one assay; those are over-represented in the sample as a whole. Calls of active or inactive are those of the source. How the source made its calls: active means growth percent below 10; inactive means the rest.
Select the correct class. Options are active, inactive and nothing else.

Solved cases (2 shown):
Clc1ccc(-c2nnc(-c3ccco3)o2)cc1: inactive
CSc1ncc(C)c(Nc2ccc(Cl)cc2)n1: inactive

Test call for this molecule, please: O=C(NC(=S)Nc1ccc(-c2nc3ccccc3[nH]2)cc1)c1ccc2ccccc2c1
inactive

Test call for this molecule, please: CC1(C)N=C(N)N=C(N)N1c1ccc(Cl)c(Cl)c1
inactive

Test call for this molecule, please: CNCCNc1nc2ccccc2c2c(=O)c3cc(F)ccc3oc12
inactive

Test call for this molecule, please: CNC(=O)NCC1OC(n2cnc3c(NC(=O)Nc4ccccc4)ncnc32)C2OC(C)(C)OC12 (stereo not given)
inactive

Test call for this molecule, please: N#Cc1c(N)nc2c(nnn2-c2cccc(Br)c2)c1N
inactive

----------
- Tested on: SF-539 CNS
- experiment_notes: NCI-60 one-dose screen, 48 h
- study_conditions: 10 µM unless noted
The panel holds about 83,000 compounds, 20% with a hit somewhere; the sample as a whole holds those more often. Activity calls are given as the source filed them. The calls were made as follows: active = growth percent below 10; inactive = the rest.
Select the correct class. Options are label 1 (active), label 0 (inactive) and nothing else.

COc1cc(/C=C/c2nc(Nc3ccc(S(=O)(=O)Nc4cc(C)on4)cc3)c3ccccc3n2)ccc1O: label 0
COc1ccc(-c2cc(-c3ccc(Nc4nc(Nc5ccccc5)nc(Nc5ccc(Cl)cc5)n4)cc3)nc(N)c2C#N)cc1: label 1
COc1ccc(-c2cc(-c3cc(OC)ccc3OC)[nH]c(=O)c2C#N)cc1: label 0
NC(=S)N/N=C/C(=O)O: label 0
C[C@]12CCC(=O)C[C@H]1CC[C@@H]1[C@@H]2CC[C@@]2(C)[C@H]1CC[C@]2(O)C(=O)CO: label 0
NS(=O)(=O)Oc1ccc(-c2sc3cc(O)ccc3c2C(=O)c2ccc(OCCN3CCCCC3)cc2)cc1: label 0
CN(C)c1ccc2cc(-c3ccccc3F)c(N)nc2c1: label 1
CCCCS(=O)(=O)Oc1ccc(-c2nc(C)c(C(=O)OCC)s2)cc1C=O: label 0

Test call for this molecule, please: COc1ccc(/C(C)=C(\c2ccc(Cl)cc2)c2ccc(OCCCN(C)C)cc2)cc1F
label 0

Test call for this molecule, please: CNC1(C#N)CCN(Cc2ccccc2)CC1
label 0

----------
- System: A498 renal
- experiment_notes: NCI-60 one-dose screen, 48 h
- study_conditions: 10 µM unless noted
Compounds without any hit were thinned out: in the full panel of roughly 83,000, 20% have a hit. Active and inactive are the calls of the source. Rule for the calls: active = growth percent below 10; inactive = the rest.
Select the correct class. Options are 1 (active), -1 (inactive) and nothing else.

[2H]c1nc(Nc2ncc(F)c(-c3cc(F)c4nc(C)n(C(C)C)c4c3)n2)c([2H])c([2H])c1CN1CCN(C([2H])([2H])C([2H])([2H])[2H])CC1: -1
COc1cc2oc(-c3cccc(C(=O)Nc4ccc(C#N)cc4)c3)cc(=O)c2c(O)c1OC: -1
CCN(CC)CCCC(C)NCc1ccccc1 (centres undefined): -1
Cn1cc(Nc2nccc(-c3ccc(N4CCCC4)c(C#N)c3)n2)cn1: -1
O=C(Oc1ccc([N+](=O)[O-])cc1)c1ccc(CBr)cc1: -1
CCOC(=O)c1nnn(C(Cc2ccccc2Cl)C(=O)OCC)c1C (centres undefined): -1

Test call for this compound, please: Cc1nc(-c2ccccc2)cc2c(O)c(C(=O)N/N=C/c3ccc(N(C)C)cc3)[nH]c(=O)c12
-1

Test call for this compound, please: CCCCCCCCN(CCCCCCCC)C(=N)c1ccnc2ccccc12
1

Test call for this compound, please: CC/C=C/[C@@H]1C=C[C@@H]2CCC[C@H]2[C@@H]1CC[C@H](O)[C@H](C)N
-1

Test call for this compound, please: COc1ccc(/C=C(\C#N)n2nnc3cc(F)c(F)cc32)c(OC)c1OC
-1

----------
- System: OVCAR-4 ovarian
- experiment_notes: NCI-60 one-dose screen, 48 h
- study_conditions: 10 µM unless noted
- Method: Growth inhibition of the OVCAR-4 human tumor cell line is measured as a screen for anti-cancer activity. Cells are grown in 96 well plates and exposed to the test compound for 48 hours. Compounds are tested at a single concentration, which is 10^-5 M for most compounds. The reported endpoint is percent growth (GI% or GIPRCNT), where numbers from 0 - 100% represent growth inhibition, and numbers from -100% - 0 represent cell death. For example, a value of 40 represents 60% growth inhibition. […]
The panel holds about 83,000 compounds, 20% with a hit somewhere; the sample as a whole holds those more often. Calls of active or inactive are those of the source. How the source made its calls: active means growth percent below 10; inactive means the rest.
Select the correct class. Options are active, inactive and nothing else.

Solved cases (5 shown):
COc1cc(/C=C/C(=O)c2cccc(-n3cc(-c4ccc(Cl)cc4)[nH]c3=O)c2)cc(OC)c1OC: inactive
COc1ccc(OC)c(/C=C2\COc3ccc(O)c(O)c3C2=O)c1: inactive
Cc1nc(Nc2ccc(NC(=S)Nc3ccccc3)cc2)nc2nc(Nc3ccc(S(=O)(=O)O)cc3)[nH]c(=O)c12: inactive
CC(=O)C(C(C)=O)c1nc2sc3cc(Cl)ccc3n2c(=N)c1C#N: inactive
C(=C\c1nc2ccccc2[nH]1)/c1nc2ccccc2[nH]1: inactive

Test call for this molecule, please: O=C(NC1CCOCC1)c1ccc2c(c1)CN(c1ncc(Cc3cccc(-n4cccn4)c3)s1)CC2
inactive

Test call for this molecule, please: [2H]c1nc(Nc2ncc(F)c(-c3cc(F)c4nc(C)n(C(C)C)c4c3)n2)c([2H])c([2H])c1CN1CCN(C([2H])([2H])C([2H])([2H])[2H])CC1
inactive

Test call for this molecule, please: COc1cccc(-c2nc3sccn3c2-c2ccnc(NCCNS(=O)(=O)c3c(Cl)cccc3Cl)c2)c1
inactive

Test call for this molecule, please: C/C(Cc1ccc(Cl)cc1)=C(/c1ccc(Cl)cc1)c1ccc(OCCN(C)C)cc1
inactive

Test call for this molecule, please: OC(COc1cccc2ccccc12)CN1CCN(c2ccccc2)CC1 (stereo not drawn)
inactive

Test call for this molecule, please: Cc1ccc(NC(=O)C(Cl)Cl)cc1
inactive

Test call for this molecule, please: C=C1C(=O)O[C@H]2[C@H]1CC/C(COC(=O)/C=C\C(=O)NCc1ccc(Cn3c(=O)sn(CCCI)c3=O)cc1)=C\CC[C@@]1(C)O[C@@H]21
active

Test call for this molecule, please: O=c1[nH]nc(-c2ccc(Cl)cc2)cc1Cc1ccccc1
inactive

Test call for this molecule, please: Cc1ccc(Nc2ccc(Nc3ccc(C)cc3S(=O)(=O)O)c3c2C(=O)c2ccccc2C3=O)c(S(=O)(=O)O)c1
inactive

Test call for this molecule, please: COc1cc(/C=C/C(=O)c2ccc(Nc3nc(Nc4ccccc4)nc(Nc4ccc(Cl)cc4)n3)cc2)cc(OC)c1OC
inactive

Test call for this molecule, please: CCCCCCNc1cc(C)nc2ccc(OC)cc12
inactive

Test call for this molecule, please: Cc1cc(Cc2cc(C)cc(C(C)(C)C)c2O)c(O)c(C(C)(C)C)c1
inactive
